# TARGET_SYSTEM: T1, human corticotrophin releasing hormone receptor type 2 (CRHR2) (human, UniProt Q13324 1-411)
# T1 sequence (looked up): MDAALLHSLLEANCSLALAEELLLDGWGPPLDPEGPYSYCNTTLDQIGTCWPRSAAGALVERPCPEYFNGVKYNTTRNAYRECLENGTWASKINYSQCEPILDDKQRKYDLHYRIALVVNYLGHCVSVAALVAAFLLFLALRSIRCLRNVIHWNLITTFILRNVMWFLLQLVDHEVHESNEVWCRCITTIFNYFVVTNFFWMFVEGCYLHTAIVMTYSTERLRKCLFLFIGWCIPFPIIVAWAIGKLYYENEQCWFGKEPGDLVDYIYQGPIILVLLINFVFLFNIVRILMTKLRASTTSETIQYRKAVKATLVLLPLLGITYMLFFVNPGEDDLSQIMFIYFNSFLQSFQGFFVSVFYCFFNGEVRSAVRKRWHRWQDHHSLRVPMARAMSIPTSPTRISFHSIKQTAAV
# TEST_DESCRIPTION: cell-based or functional assay
Where no end group is shown, it is not given here.
Overview of reported Log DR across a group of binders:
EXPERIMENTAL_ENDPOINT: Log DR (log10)

| BINDER | EXPERIMENTAL_ENDPOINT | SIGN_QUALIFIER | RECORDED_VALUE |
| --- | --- | --- | --- |
| TKFTLSLDVPTNIMNLLFNIAKAKNLRAQAAACAHLMAQI (NES-PEG (about 20 kDa) on Cys 33; C-terminal amide (-NH2)) [Pegylated Cys-variant stresscopin-like peptide with NES linker and PEG about 20 kDa SEQ ID NO: 87] | Log DR | > | 3.68 |
| TKFTLSLDVPTNIMNLLCNIAKAKNLRAQAAANAHLMAQI (NES-PEG (about 20 kDa) on Cys 18; C-terminal amide (-NH2)) [Pegylated Cys-variant stresscopin-like peptide with NES linker and PEG about 20 kDa SEQ ID NO: 72] | Log DR | = | 1.5 |
| TKFTLSLDVPTNIMNLLFNIAKAKNLRCQAAANAHLMAQI-NH2 (not fully specified (residue 28); also: PEG with maleimide at both ends, peptide chains per PEG not given here) [Pegylated Cys-variant stresscopin-like peptide, NES-PEG MW20000 & DOUBLE-ENDED, SEQ ID NO: 98] | Log DR | = | 0.18 |
| TKFTLSLCVPTNIMNLLFNIAKAKNLRAQAAANAHLMAQI-NH2 [Cys-variant stresscopin-like peptide SEQ ID NO: 9] | Log DR | = | 1.89 |
| TKFTLCLDVPTNIMNLLFNIAKAKNLRAQAAANAHLMAQI-NH2 [Cys-variant stresscopin-like peptide SEQ ID NO: 7] | Log DR | = | 2.08 |
| TKFTLSLDVPTNIMNLLFNIAKCKNLRAQAAANAHLMAQI (NES-PEG (about 20 kDa) on Cys 23; C-terminal amide (-NH2)) [Pegylated Cys-variant stresscopin-like peptide with NES linker and PEG about 20 kDa SEQ ID NO: 77] | Log DR | = | 1.27 |
| TKFTLSCDVPTNIMNLLFNIAKAKNLRAQAAANAHLMAQI-NH2 [Cys-variant stresscopin-like peptide SEQ ID NO: 8] | Log DR | = | 2.86 |
| TKFTLSLDVPTNIMNCLFNIAKAKNLRAQAAANAHLMAQI-NH2 [Cys-variant stresscopin-like peptide SEQ ID NO: 17] | Log DR | = | 0.02 |

Cited source for all entries: patent US20110105397A1
